Test system: SH-SY5Y cells
Test: Nuclear count from microscopy images (cellular growth and toxicity)
Conditions: PKIS2 primary screening
Nuclear Count values, listed per item
measured_metric: Nuclear Count

>  <molecule>
CCCc1ccc(S(=O)(=O)NC2CCN(c3ccnc(Nc4ccc(F)cc4)n3)C2)cc1 (centres unmarked) [GSK1379715]

>  <measured_metric>
Nuclear Count

>  <measured_number>
97.10

$$$$
>  <molecule>
O=C(O)C(F)(F)F.O=C(O)C(F)(F)F.O=c1[nH]ccc2nc(N[C@@H]3CCCNC3)nc(Nc3ccc(S(=O)(=O)N4CCOCC4)cc3)c12 [UNC10225269A]

>  <measured_metric>
Nuclear Count

>  <measured_number>
106.18

$$$$
>  <molecule>
FC(F)(F)c1ccc(/C=C/c2cncnc2Nc2ccc3[nH]c(Cc4ccccc4)nc3c2)cc1 [UNC10225096A]

>  <measured_metric>
Nuclear Count

>  <measured_number>
103.45

$$$$
>  <molecule>
COc1ccc(C)c(Nc2ccnc(Nc3ccc(-c4cnc[nH]4)cc3)n2)c1 [GW784041]

>  <measured_metric>
Nuclear Count

>  <measured_number>
105.20

$$$$
>  <molecule>
COC(=O)Nc1nc2ccc(Oc3ccc(NC(=O)Nc4cc(C(F)(F)F)ccc4Cl)cc3)cc2[nH]1 [GW697465]

>  <measured_metric>
Nuclear Count

>  <measured_number>
70.87

$$$$
>  <molecule>
Clc1ccc(-c2cc(-c3c[nH]nc3-c3ccccn3)ccn2)cc1 [UNC10225057A]

>  <measured_metric>
Nuclear Count

>  <measured_number>
99.07

$$$$
>  <molecule>
CN(C(=O)c1ccc(-c2cc(-c3c[nH]nc3-c3ccccn3)ccn2)cc1)C1CCOCC1 [UNC10225473A]

>  <measured_metric>
Nuclear Count

>  <measured_number>
84.56

$$$$
>  <molecule>
C[C@@H]1CC[C@@H](C(=O)Nc2ccccc2)CN1c1cc(-c2ccc3c(N)n[nH]c3c2)nc(N)n1 [GSK2286062]

>  <measured_metric>
Nuclear Count

>  <measured_number>
138.15

$$$$
>  <molecule>
Cc1ccc(NC(=O)c2ccc(Cl)cc2)cc1-c1ccc(C(=O)Nc2ccncc2)cc1 [UNC10224985A]

>  <measured_metric>
Nuclear Count

>  <measured_number>
119.79

$$$$
>  <molecule>
N#Cc1cccc(C(=O)NC2CCN(c3ccnc(Nc4ccc(F)cc4)n3)C2)c1 (centres unmarked) [GSK1379708]

>  <measured_metric>
Nuclear Count

>  <measured_number>
107.86

$$$$
>  <molecule>
CNc1nccc(-c2c(-c3ccc(F)cc3)ncn2CCCN2CCOCC2)n1 [UNC10225031A]

>  <measured_metric>
Nuclear Count

>  <measured_number>
102.35

$$$$
>  <molecule>
COc1ccc(S(=O)(=O)NC2CCN(c3cc(C)nc(Nc4cccc(C#N)c4)n3)CC2)cc1 [GSK1653539]

>  <measured_metric>
Nuclear Count

>  <measured_number>
97.37

$$$$
>  <molecule>
COc1ccc(C[C@@H](CN)NC(=O)c2cc(Br)c(-c3ccnc4[nH]ccc34)s2)cc1.Cl.Cl [UNC10225412A, reference compound]

>  <measured_metric>
Nuclear Count

>  <measured_number>
99.32

$$$$
>  <molecule>
O=c1cc(N2CCOCC2)nc2n(Cc3cccc(C(F)(F)F)c3)ccn12 [UNC10225024A]

>  <measured_metric>
Nuclear Count

>  <measured_number>
98.56

$$$$

These measurements were taken from paper PMC9851200.
